target: FVIIa (Homo sapiens, UniProt P08709); construct: with about 1% of the total amount in the proteolytically active form factor VIIa; assay: FVIIa-Xase Ki (37° C.); type: biochemical
Sequence (P08709 213-466 limits assumed): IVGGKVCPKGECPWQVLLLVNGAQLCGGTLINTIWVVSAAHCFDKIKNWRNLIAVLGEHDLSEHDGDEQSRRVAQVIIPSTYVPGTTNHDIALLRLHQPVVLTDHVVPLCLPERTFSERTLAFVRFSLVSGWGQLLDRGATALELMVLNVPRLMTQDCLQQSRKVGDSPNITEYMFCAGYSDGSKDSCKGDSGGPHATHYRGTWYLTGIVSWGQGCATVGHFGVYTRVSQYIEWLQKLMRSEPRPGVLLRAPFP
Sequence (P08709 61-212 limits assumed): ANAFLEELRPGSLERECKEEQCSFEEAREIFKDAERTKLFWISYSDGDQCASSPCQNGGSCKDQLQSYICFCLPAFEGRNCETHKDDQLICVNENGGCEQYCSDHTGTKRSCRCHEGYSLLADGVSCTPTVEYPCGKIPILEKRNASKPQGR
Sequence (P13726 33-295 partner): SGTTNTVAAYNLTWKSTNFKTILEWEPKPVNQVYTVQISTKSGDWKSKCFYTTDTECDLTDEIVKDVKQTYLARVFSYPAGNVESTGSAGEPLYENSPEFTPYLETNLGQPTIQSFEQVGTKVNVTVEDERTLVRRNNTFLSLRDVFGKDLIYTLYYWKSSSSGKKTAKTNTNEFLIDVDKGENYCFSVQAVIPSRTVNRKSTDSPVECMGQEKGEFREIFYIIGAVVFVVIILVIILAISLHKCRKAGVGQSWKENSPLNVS
Structures can show the parent of a compound that is named as a salt.
Readout type: pKi
pKi here: minus log base 10 of the concentration, concentration in moles per litre.

INSERT INTO measurements (molecule, readout_type, obs_value) VALUES
  ('CN1Cc2cc(ccc2S(=O)(=O)C2CC2)NC(=O)CCc2cc(ccc2O)[C@@H](Nc2ccc3c(N)ncc(F)c3c2)C1=O (single isomer, unassigned) [Example 16]', 'pKi', 7.04);

Query: pKi; subject: CN1CCc2cccc(c2)C(Nc2ccc3c(N)nccc3c2)C(=O)N(C)Cc2cc(ccc2S(=O)(=O)C2CC2)NC1=O (centres unmarked) [Example 13, trifluoroacetic acid salt] 8.22

All figures here come from patent US9657006B2.
